Attribute: composite z-score
System: Plasmodium falciparum Sir2 (PF13_0152, Sir2A)
METHOD_NOTES: pfSir2 binders on small-molecule microarrays, primary screen, biochemical, small-molecule microarray, 635 nm fluorescence (AID 1098);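 also: score merges spot fluorescence intensity with its signal-to-noise ratio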
EXPERIMENTAL_CONTEXT: small-molecule microarray binding, fluorescence 635 nm; higher = more signal

COMPOUND	composite z-score
CCOC(=O)C1=C[C@@H](C(C)(C)C)N(S(=O)(=O)c2ccc(C)cc2)[C@H]1c1ccc(C)cc1	0.772
CN1C(=O)C2C=CC(C(O)c3ccc(I)cc3)N(Nc3ccccc3)C2C1=O (configuration not stated)	1.23
CCOC(=O)C=Cc1ccccc1O	0.109
C=C(/C(=C/C[C@@H](OC(C)=O)c1ccc(CO)o1)c1cc(C(=O)OC)ccc1OC)C(C)C	0.12
COC(=O)[C@@]1(Cc2ccc(F)cc2)[C@H]2c3cc(C(=O)N(C)C)n(Cc4ccc(O)c(OC)c4)c3C[C@H]2CN1C(=O)c1ccccc1	0.472
O=c1cccc(-c2ccco2)o1	1.28
COCCOC(=O)N1C(=O)[C@@]2(c3cc(C#CCC(C(=O)OC)C(=O)OC)ccc31)[C@H](C(=O)NC[C@H](O)c1ccccc1)[C@H]1C(=O)O[C@H](c3ccccc3)[C@H](c3ccccc3)N1[C@@H]2c1ccc(OCCO)cc1	1.18
COC(=O)C(CC#Cc1ccc2c(c1)[C@]1(C(=O)N2)[C@H](c2ccc(O)cc2)N2[C@H](c3ccccc3)[C@H](c3ccccc3)OC(=O)[C@H]2[C@@H]1C(=O)N1CCCCCCC1)C(=O)OC	1.48
O=C1C2C=CC(C(O)C=Cc3ccc([N+](=O)[O-])cc3)N(Nc3ccccc3)C2C(=O)N1c1ccccc1 (configuration not stated)	1.37
C[C@]1(C(=O)NCCN2CCOCC2)c2ccccc2C(=O)N(Cc2cc(F)cc(C(F)(F)F)c2)[C@H]1c1ccc(CO)cc1	1.81
O=C1c2ccccc2[C@](Cc2ccccc2I)(C(=O)NC2CC2)[C@H](c2ccc(CO)cc2)N1Cc1ccccc1C(F)(F)F	1.43
CC(C)(C)OC(=O)CC[C@]1(C(=O)N2CCCCC2)COC(c2ccc(OCCCO)cc2)=N1	1.7
CC=CC(O)C1C=CC2C(=O)NC(=O)C2N1Nc1ccccn1 (configuration not stated)	0.733
O=C1N(CCS(=O)(=O)c2ccccc2)Cc2ccccc2[C@@H]2OC(c3ccc(OCCCO)cc3)=N[C@]12CCS(=O)(=O)c1ccccc1	1.14
C=C(/C(=C/C[C@@H](OC(C)=O)c1ccc(OCCO)cc1)c1cc(C(=O)OC)ccc1OC)C(C)C	1.28
Nc1cc(Br)ccc1C(=O)O	-0.0113
COCC1=C2[C@@H](CCc3ccccc3)OB(O)C[C@@H]2[C@@H]2C(=O)N(C)C(=O)[C@@H]2C1	-0.069
